Test system: colon 26 cells
Method Notes: colon 26 cells IC50
Type: cell-based
Reported Conditions: Mus musculus, read-out: colon 26 cells, IC50
pIC50: −log10 of the molar value.
Property Label: pIC50

Just so you know, measured pIC50 for `Cc1cc(I)ccc1Nc1c(C(=O)O)cc2nc[nH]c2c1F` came out at < 5.00
